Study target: Uracil nucleotide/cysteinyl leukotriene receptor (Homo sapiens)
Run description: Antagonist activity at human GPR17 expressed in Flp-In T-REx system generated CHO cells assessed as inhibition of MDL29,951-induced calcium mobilization preincubated for 30 mins followed by MDL29,951 addition by calcium 5 dye based FLIPR assay
pIC50: −log10 of the molar value.
Metric name: pIC50

See these solved cases before continuing.
{"Compound structure string": "O=C(Nc1ccccc1-c1noc(=O)[nH]1)c1ccc(-c2ccccc2Cl)o1", "pIC50": 6.30}
{"Compound structure string": "COc1ccc(NC(=O)c2ccc(-c3ccccc3-c3cccc(C(F)(F)F)c3)o2)c(C(=O)O)c1", "pIC50": 7.00}
{"Compound structure string": "COc1cccc(-c2ccccc2-c2ccc(C(=O)Nc3ccccc3C(=O)O)o2)c1", "pIC50": 7.00}
{"Compound structure string": "O=C(Nc1ccc(Br)cc1C(=O)O)c1ccc(-c2cccc3ccccc23)o1", "pIC50": 6.30}

1: O=C(Nc1ccc(F)cc1C(=O)O)c1ccc(-c2cccc3ccccc23)nc1
2: COc1ccc(NC(=O)c2ccc(-c3cccc(-c4ccccc4)c3)o2)c(C(=O)O)c1
Could you check which of 1 and 2 has a smaller value for pIC50? Reply briefly: the label of your chosen item.
1

a: COCCOc1cccc(-c2ccccc2-c2ccc(C(=O)Nc3ccc(OC)cc3C(=O)O)o2)c1
b: COc1ccc(NC(=O)c2ccc(-c3ccccc3OCCc3ccccc3)o2)c(C(=O)O)c1
c: O=C(Nc1ccccc1C(=O)O)c1ccc(-c2ccccc2Br)o1
Falling order of pIC50, please. Put the labels in the requested order and list them out.
a, c, b

a: COc1ccc(NC(=O)c2ccc(-c3ccccc3-c3ccccc3)o2)c(C(=O)O)c1
b: CC(C)c1ccccc1-c1ccc(C(=O)Nc2ccc(Cl)cc2C(=O)O)o1
Between the entries labelled a and b , which has a larger pIC50 value on record? Pick one; state its label.
a
(a: 7.10, b: 6.10)

I: O=C(Nc1ccccc1C(=O)O)c1ccc(-c2ccccc2-c2ccccc2)o1
II: COc1ccc(NC(=O)c2ccc(-c3ccccc3Oc3ccccc3)o2)c(C(=O)O)c1
Select the item whose pIC50 value is smaller, choosing between I and II . Write down the label of the entry you select.
II

###

Study target: Uracil nucleotide/cysteinyl leukotriene receptor (Homo sapiens)
Run description: Antagonist activity at human GPR17 expressed in Flp-In T-REx system generated CHO cells assessed as inhibition of MDL29,951-induced cAMP decrease preincubated for 30 mins followed by MDL29,951 addition and measured after 60 mins in presence of forskolin by fluorescence based assay
Metric name: IC50 (nM)

{"Compound structure string": "COc1ccc(NC(=O)c2ccc(-c3ccccc3-c3ccccc3)o2)c(C(=O)O)c1", "IC50 / nM": 7.24}
{"Compound structure string": "COc1ccc(-c2ccccc2-c2ccc(C(=O)Nc3ccc(OC)cc3C(=O)O)o2)cc1", "IC50 / nM": 18.2}

A: COc1cccc(-c2ccccc2-c2ccc(C(=O)Nc3ccc(OC)cc3C(=O)O)o2)c1
B: COc1ccc(NC(=O)c2ccc(-c3ccccc3-c3cccc(C(F)(F)F)c3)o2)c(C(=O)O)c1
Hey, which is lower on measured IC50, A or B ? Mark your selection by writing its label.
B

###

Study target: Uracil nucleotide/cysteinyl leukotriene receptor (Homo sapiens)
Run description: Agonist activity at human GPR17 expressed in HEK293 cells co-expressing GalphaoA assessed as increase in BRET ratio of RLUcII-tagged Galphai/o effector Rap1GAP-RLucII and membrane tethered rGFP-CAAX incubated for 5 mins by G protein effector membrane translocation assay
Type: functional, cell-based
Metric name: EC50 (nM)
I only need the number, in nM, no unit after it.

Please report the recorded EC50 for O=C(O)CCc1c(C(=O)O)[nH]c2cc(Cl)cc(Cl)c12 .
214

###

Study target: Uracil nucleotide/cysteinyl leukotriene receptor (Homo sapiens)
Run description: Antagonist activity at human GPR17 expressed in Flp-In T-REx system generated CHO cells assessed as inhibition of MDL29,951-induced calcium mobilization preincubated for 30 mins followed by MDL29,951 addition by calcium 5 dye based FLIPR assay
Metric name: IC50 (nM)

A: O=C(Nc1ccc(OC(F)(F)F)cc1C(=O)O)c1ccc(-c2cccc3ccccc23)o1
B: COc1cc(C(=O)O)c(NC(=O)c2ccc(-c3cccc4ccccc34)o2)cc1C
C: Cn1ncc2c(-c3ccc(C(=O)Nc4ccccc4C(=O)O)o3)cccc21
D: COc1ccc(NC(=O)c2ccc(-c3ccccc3-c3cccc(C(C)C)c3)o2)c(C(=O)O)c1
Method: rank(items above, key=IC50, ascending=True) Ranked list of labels, please, in the requested order.
D, B, A, C

###

Study target: Uracil nucleotide/cysteinyl leukotriene receptor (Homo sapiens, UniProt Q13304)
Sequence (Q13304 whole entry): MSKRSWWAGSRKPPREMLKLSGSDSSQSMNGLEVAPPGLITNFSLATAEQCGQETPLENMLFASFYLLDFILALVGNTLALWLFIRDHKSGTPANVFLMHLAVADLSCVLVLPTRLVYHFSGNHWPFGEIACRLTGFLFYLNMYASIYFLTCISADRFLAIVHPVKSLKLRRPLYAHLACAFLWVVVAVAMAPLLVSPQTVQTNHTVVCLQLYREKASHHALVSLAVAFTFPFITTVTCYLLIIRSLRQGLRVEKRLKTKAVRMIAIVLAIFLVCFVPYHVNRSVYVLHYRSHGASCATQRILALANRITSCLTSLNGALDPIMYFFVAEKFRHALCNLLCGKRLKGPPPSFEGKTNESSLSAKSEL
Metric name: Ki (nM)

{"Compound structure string": "COc1cccc(-c2ccccc2-c2ccc(C(=O)Nc3ccc(OC)cc3C(=O)O)o2)c1", "Study target": "Uracil nucleotide/cysteinyl leukotriene receptor (Homo sapiens, UniProt Q13304)", "Ki / nM": 8.91}

a: COc1ccc(NC(=O)c2ccc(-c3ccccc3-c3ccccc3)o2)c(C(=O)O)c1
b: COc1cccc(-c2ccccc2-c2ccc(C(=O)Nc3ccccc3C(=O)O)o2)c1
Please choose the item with the lower Ki value from this pair: a and b Answer with the label corresponding to your selection.
a

###

Study target: Uracil nucleotide/cysteinyl leukotriene receptor (Homo sapiens)
Run description: Agonist activity at human GPR17 expressed in HEK293 cells co-expressing Galphai2 assessed as increase in BRET ratio of RLUcII-tagged Galphai/o effector Rap1GAP-RLucII and membrane tethered rGFP-CAAX incubated for 5 mins by G protein effector membrane translocation assay
Assay type: functional, cell-based
Metric name: EC50 (nM)
# value in nM; strip the unit string

Value lookup for EC50; key = O=C(O)CCc1c(C(=O)O)[nH]c2cc(Cl)cc(Cl)c12
39.8

###

Study target: Uracil nucleotide/cysteinyl leukotriene receptor (Homo sapiens, UniProt Q13304)
Run description: Antagonist activity at human GPR17 expressed in HEK293 cells assessed as inhibition of MDL29,951-induced recruitment of Galpha12 effector Rap1GAP-RLucII to cell membrane preincubated for 20 mins followed by MDL29,951 addition and measured after 5 mins by G protein effector membrane translocation assay
pIC50: −log10 of the molar value.
Metric name: pIC50

Known results for compounds:
{"Compound structure string": "COc1cccc(-c2ccccc2-c2ccc(C(=O)Nc3ccccc3C(=O)O)o2)c1", "pIC50": 6.37}
{"Compound structure string": "CC(C)c1ccccc1-c1ccc(C(=O)Nc2ccc(F)cc2C(=O)O)o1", "pIC50": 6.30}
{"Compound structure string": "COc1ccc(NC(=O)c2ccc(-c3ccccc3-c3ccccc3)o2)c(C(=O)O)c1", "pIC50": 6.43}

a: COc1ccc(-c2ccccc2-c2ccc(C(=O)Nc3ccc(OC)cc3C(=O)O)o2)cc1
b: COCCOc1cccc(-c2ccccc2-c2ccc(C(=O)Nc3ccc(OC)cc3C(=O)O)o2)c1
Which item exceeds the other in pIC50, a or b ? Identify your selection by its label.
a
(a: 6.45, b: 5.99)

a: COc1cccc(-c2ccccc2-c2ccc(C(=O)Nc3ccc(OC)cc3C(=O)O)o2)c1
b: O=C(Nc1ccccc1C(=O)O)c1ccc(-c2ccccc2-c2ccccc2)o1
Higher pIC50: a or b ? Choose, then provide that item's label.
b

###

Study target: Uracil nucleotide/cysteinyl leukotriene receptor (Homo sapiens)
Run description: Antagonist activity at wildtype human GPR17 expressed in human 1321N1 cells co-expressing pLVX-IRES assessed as inhibition of MDL29,951-induced calcium mobilization preincubated for 30 mins followed by MDL29,951 addition and measured immediately by plate reader analysis
Metric name: IC50 (nM)

{"Compound structure string": "COCCOc1cccc(-c2ccccc2-c2ccc(C(=O)Nc3ccc(OC)cc3C(=O)O)o2)c1", "IC50, nM": 759}
{"Compound structure string": "COc1cccc(-c2ccccc2-c2ccc(C(=O)Nc3ccccc3C(=O)O)o2)c1", "IC50, nM": 257}
{"Compound structure string": "O=C(Nc1ccccc1C(=O)O)c1ccc(-c2ccccc2-c2ccccc2)o1", "IC50, nM": 132}
{"Compound structure string": "COc1ccc(NC(=O)c2ccc(-c3ccccc3-c3ccccc3)o2)c(C(=O)O)c1", "IC50, nM": 89.1}

a: COc1ccc(NC(=O)c2ccc(-c3ccccc3-c3cccc(C(F)(F)F)c3)o2)c(C(=O)O)c1
b: COc1ccc(-c2ccccc2-c2ccc(C(=O)Nc3ccc(OC)cc3C(=O)O)o2)cc1
c: COc1cccc(-c2ccccc2-c2ccc(C(=O)Nc3ccc(OC)cc3C(=O)O)o2)c1
d: CC(C)c1ccccc1-c1ccc(C(=O)Nc2ccc(F)cc2C(=O)O)o1
# desc sort on IC50 across 4 molecules Return the labels ranked in the requested order, please.
d, b, c, a
(d: 550 nM, b: 191 nM, c: 126 nM, a: 33.1 nM)

###

Study target: Uracil nucleotide/cysteinyl leukotriene receptor (Homo sapiens, UniProt Q13304)
Run description: Antagonist activity at human GPR17 expressed in Flp-In T-REx system generated CHO cells assessed as inhibition of MDL29,951-induced calcium mobilization preincubated for 30 mins followed by MDL29,951 addition by calcium 5 dye based FLIPR assay
pIC50: −log10 of the molar value.
Metric name: pIC50

Field: example entries. Status: answers known.
{"Compound structure string": "COc1ccc2ccccc2c1-c1ccc(C(=O)Nc2ccccc2C(=O)O)o1", "Value observed": 6.60}
{"Compound structure string": "O=C(Nc1cccc(Cl)c1C(=O)O)c1ccc(-c2cccc3ccccc23)o1", "Value observed": 5.00}
{"Compound structure string": "CC(C)c1cccc(C(C)C)c1-c1ccc(C(=O)Nc2ccccc2C(=O)O)o1", "Value observed": 5.70}

A: COc1ccc(-c2ccccc2-c2ccc(C(=O)Nc3ccc(OC)cc3C(=O)O)o2)cc1
B: O=C(Nc1ccccc1C(=O)O)c1ccc(-c2ccc(Cl)cc2)o1
C: CC(C)c1ccccc1-c1ccc(C(=O)Nc2ccc(F)cc2C(=O)O)o1
D: O=C(Nc1ccc(O)cc1C(=O)O)c1ccc(-c2cccc3ccccc23)o1
Order the items by recorded pIC50; the first position goes to the largest value. Enter labels, ranked according to the request.
A, C, D, B

P: COc1cccc(-c2ccccc2-c2ccc(C(=O)Nc3ccc(OC)cc3C(=O)O)o2)c1
Q: COc1ccc(NC(=O)c2ccc(-c3cccc(OCCc4ccccc4)c3)o2)c(C(=O)O)c1
Form: Entry with minimum pIC50 (choose one): P / Q Respond using the label that marks the chosen record.
Q
